# Tested on: KM12 colon
# assay-info: NCI tumour cell line growth inhibition, 48 h; in the data active = GI50 below about 0.43 µM; inactive = the rest
API: response.call in active, inactive

O=C(CCCCCCC(=O)Nc1ccc2c(c1)/C(=C/c1ccc[nH]1)C(=O)N2)NO; inactive
CCOC(=O)C#Cc1c(CC(=O)OCC)nnn1[C@H]1O[C@@H](CO)[C@@H]2OC(C)(C)O[C@@H]21; inactive

Q: Please let me know the test result on file for CC1/C(=N/Nc2ccc([N+](=O)[O-])cc2)CC2C3(C)CCC2(C(C)C(=O)O)C(=O)C13 (stereo not given) .
Ans: inactive

Q: Please let me know the test result on file for COC(=O)c1cc2oc(/C=C3\SC(=S)N(NC(C)=O)C3=O)cc2n1Cc1ccccc1 .
Ans: inactive

Q: Please let me know the test result on file for CSC1C(=O)c2ccccc2/C(=N/Nc2nc3ccccc3s2)C1C (stereo not given) .
Ans: inactive
